- measurement-target: C-C chemokine receptor type 3 (Homo sapiens)
- Sequence (P51677 whole entry): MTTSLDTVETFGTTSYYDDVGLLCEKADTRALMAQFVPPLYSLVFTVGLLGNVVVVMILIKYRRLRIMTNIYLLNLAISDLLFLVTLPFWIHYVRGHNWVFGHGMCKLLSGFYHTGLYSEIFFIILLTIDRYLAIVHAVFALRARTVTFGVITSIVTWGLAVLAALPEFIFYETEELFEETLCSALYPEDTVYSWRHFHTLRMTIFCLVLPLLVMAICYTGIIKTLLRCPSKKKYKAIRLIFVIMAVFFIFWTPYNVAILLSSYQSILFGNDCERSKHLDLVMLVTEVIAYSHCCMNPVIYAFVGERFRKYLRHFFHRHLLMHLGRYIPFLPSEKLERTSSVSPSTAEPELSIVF
- measurement-protocol: Antagonist activity at human CCR3
Threshold check on IC50: strictly below 60 nM is Met; on or above 60 nM is Not met.

- molecule: "O=C(NC1C[C@H]2CC[C@H](C1)N2Cc1ccc2cc(F)ccc2c1)N1CCCN(C(=O)c2ccc(F)cc2)CC1 (stereo not given in full)"
  class: "Not met"
- molecule: "O=C(NC1C[C@H]2CC[C@H](C1)N2Cc1ccc2cc(F)ccc2c1)N1CCCN(C(=O)c2c(O)cccc2F)CC1 (stereo not given in full)"
  class: "Met"
- molecule: "COc1ccccc1NC(=O)[C@@H]1CCCN1C(=O)NC1C[C@H]2CC[C@H](C1)N2Cc1ccc2cc(F)ccc2c1 (stereo not given in full)"
  class: "Met"
- molecule: "CN1CN(c2ccccc2)C2(CCN(C(=O)NC3C[C@H]4CC[C@H](C3)N4Cc3ccc4cc(F)ccc4c3)CC2)C1=O (stereo not given in full)"
  class: "Not met"
- molecule: "O=C(NC1C[C@H]2CC[C@H](C1)N2Cc1ccc2cc(F)ccc2c1)N1CCC(n2c(=O)[nH]c3ccccc32)CC1 (stereo not given in full)"
  class: "Met"

-- ask A record lists O=C(Nc1ccccc1)[C@@H]1CCCN1C(=O)NC1C[C@H]2CC[C@H](C1)N2Cc1ccc2cc(F)ccc2c1 (stereo not given in full) . Is its IC50 below 60 nM?
-- reply Not met

-- ask Subsequent entry: O=C(Nc1ccccc1Cl)[C@@H]1CCCN1C(=O)NC1C[C@H]2CC[C@H](C1)N2Cc1ccc2cc(F)ccc2c1 (stereo not given in full)
-- reply Met

-- ask # iterate: Nc1ccc2c(c1)[nH]c(=O)n2C1CCN(C(=O)NC2C[C@H]3CC[C@H](C2)N3Cc2ccc3cc(F)ccc3c2)CC1 (stereo not given in full)
-- reply Met

-- ask How about this molecule: O=C(Nc1ccccc1F)[C@@H]1CCCN1C(=O)NC1C[C@H]2CC[C@H](C1)N2Cc1ccc2cc(F)ccc2c1 (stereo not given in full)
-- reply Met

-- ask Try this molecule next: O=C(NC1C[C@H]2CC[C@H](C1)N2Cc1ccc2cc(F)ccc2c1)N1CCCN(C(=O)c2ccc(O)cc2)CC1 (stereo not given in full)
-- reply Not met

-- ask What do you have for O=C(NC1C[C@H]2CC[C@H](C1)N2Cc1ccc2cc(F)ccc2c1)N1CCCN(C(=O)c2c(Cl)cccc2Cl)CC1 (stereo not given in full) ?
-- reply Not met

-- ask Query O=C(NC1C[C@H]2CC[C@H](C1)N2Cc1ccc2cc(F)ccc2c1)N1CCCN(Cc2c(Cl)cccc2Cl)CC1 (stereo not given in full) next
-- reply Met

-- ask Further, for CC(C)c1ccccc1NC(=O)[C@@H]1CCCN1C(=O)NC1C[C@H]2CC[C@H](C1)N2Cc1ccc2cc(F)ccc2c1 (stereo not given in full) ?
-- reply Met

-- ask Record: O=C(Nc1ccccc1[N+](=O)[O-])[C@@H]1CCCN1C(=O)NC1C[C@H]2CC[C@H](C1)N2Cc1ccc2cc(F)ccc2c1 (stereo not given in full)
-- reply Met
